Where these numbers come from: the RNAGym collection of RNA variant scans (doi:10.7554/elife.80360)

List of self-cleavage values.
B1: Hairpin Ribozyme (parent)
chain: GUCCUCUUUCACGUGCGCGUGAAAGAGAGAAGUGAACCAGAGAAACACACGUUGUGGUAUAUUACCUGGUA

Variants of: B1
methodNotes: self-cleavage, relative activity (ratio to wild type); higher = more cleavage; co-transcriptional
Please state the value as a number alone, without comment.

Ask: Quick one: self-cleavage for U8A U52A ?
Reply: 0.658

Ask: Can you look up the measured self-cleavage of G19C A71G for me?
Reply: 1.07

Ask: Fill blank: measured self-cleavage of the variant G17A C48A is ____.
Reply: 0.145

Ask: What self-cleavage value was documented for this variant, A41G G69U ?
Reply: 0.42

Ask: I have this variant here, C18U G54A , and I need its recorded self-cleavage.
Reply: 0.695

Ask: Which value of self-cleavage has been reported for U20G A61C in the records?
Reply: 0.11

Ask: Find the recorded self-cleavage belonging to G17U G32C and report it.
Reply: 0.137

Ask: Need self-cleavage of U58A U63C , thanks.
Reply: 0.307

Ask: Can you share its self-cleavage? I mean this variant: C10G C37G
Reply: 0.372

Ask: Item G51C G69A has what recorded self-cleavage?
Reply: 0.336

Ask: Which self-cleavage value is on record for C10A C66A ?
Reply: 0.283
